# experimental.protocol: qHTS for Inhibitors of human tyrosyl-DNA phosphodiesterase 1 (TDP1): qHTS in cells in presence of CPT; note: nearly all actives have a fitted effect of over 55% in size
# cond: chicken DT40 Tdp1-/-;hTDP1 cells + 20 nM CPT, ATP luminescence, 48 h; series mostly up to 46.2 µM
The whole screen tested about 420,000 compounds, of which about 50,000 (12%) were called active. Roughly 26% stayed inconclusive and do not appear here. Calls come from the whole dose curve; as a rule, active = well fitted inhibition curve with a large enough effect; inconclusive = small, poorly fitted or top-dose-only effect; inactive = flat fitted curve, though single readings scatter. Only a selection was taken, and actives are over-represented in it overall.
Please reply with one of these outcomes: active, inactive

Check out these entries, answers already filled in.
{"columns": ["compound", "cat"],
 "data": [
  ["O=c1c2ccccc2nc2n1C1(CCCCC1)Cc1ccccc1-2", "active"],
  ["O=C(O)CCN(Cc1ccccc1)S(=O)(=O)c1c(Cl)cccc1Cl", "inactive"],
  ["C[C@H]1Cn2cnc(C(=O)N[C@@H](Cc3c[nH]c4ccccc34)C(=O)OC(C)(C)C)c2C(=O)N1", "inactive"],
  ["O=C(c1cccc(Br)c1)N1CCN(Cc2cc(=O)n3nc(-c4ccccc4)sc3n2)CC1", "inactive"]
]}

Query: Field: outcome | Entry: O=c1oc2ccccc2cc1-c1csc(Nc2ccc(O)cc2)n1
Result: active

Query: Let us now turn to COc1ccc2nc(Nc3nc(-c4cc5ccccc5oc4=O)cs3)sc2c1
Result: active

Query: Let us now turn to Cc1cc(/C=C2/SC(=O)N(CC(=O)N3CCCC3)C2=O)c(C)n1C
Result: inactive

* * *

# experimental.protocol: qHTS for Inhibitors of human tyrosyl-DNA phosphodiesterase 1 (TDP1): qHTS in cells in presence of CPT; note: nearly all actives have a fitted effect of over 55% in size
# cond: chicken DT40 Tdp1-/-;hTDP1 cells + 20 nM CPT, ATP luminescence, 48 h; series mostly up to 46.2 µM
The whole screen tested about 420,000 compounds, of which about 50,000 (12%) were called active. Inconclusive results (about 26%) are left out. The call rests on the fitted dose curve; in most records, active means well fitted inhibition curve with a large enough effect; inconclusive means small, poorly fitted or top-dose-only effect; inactive means flat fitted curve, though single readings scatter. What follows is part of a selection rich in actives, with near analogues and random picks from the rest.
Please reply with one of these outcomes: 1 (active), -1 (inactive)

Check out these entries, answers already filled in.
{"columns": ["compound", "cat"],
 "data": [
  ["CN(c1ccccc1)S(=O)(=O)c1ccc(Cl)c(C(=O)NCCc2c[nH]c3ccccc23)c1", 1],
  ["CC(C)Cn1cnc2c1c(=O)n(CC(=O)NN)c(=O)n2Cc1ccccc1", -1],
  ["Cc1cccc(N(C(=O)c2csnn2)C(C(=O)NCc2ccccc2)c2ccncc2)c1 (stereo not given)", -1],
  ["O=C(NCCc1ccccc1)c1c[nH]c2ccc(F)cc2c1=O", -1],
  ["CCc1ccc(NS(=O)(=O)c2ccc3[nH]cc(C(=O)NCCc4cccc(C)c4)c(=O)c3c2)cc1", -1],
  ["O=C(OCC(=O)N1CCN(C(=O)c2ccco2)CC1)c1cccc(O)c1", -1],
  ["O=C(Nc1nnc(SCc2c(Cl)cccc2Cl)s1)c1cccc([N+](=O)[O-])c1", -1],
  ["CCN(CC)C(=O)CSc1nc2ccccc2o1", -1],
  ["CC(C)(C)C(=O)CSc1nc2ccccc2o1", -1]
]}

Then this compound:
Query: Field: outcome | Entry: CC(=O)N/C(=C/c1ccc(Cl)cc1)C(=O)NCCc1c[nH]c2ccccc12
Result: -1

* * *

# experimental.protocol: qHTS for Inhibitors of human tyrosyl-DNA phosphodiesterase 1 (TDP1): qHTS in cells in presence of CPT; note: nearly all actives have a fitted effect of over 55% in size
# cond: chicken DT40 Tdp1-/-;hTDP1 cells + 20 nM CPT, ATP luminescence, 48 h; series mostly up to 46.2 µM
Screen size: about 420,000 compounds; about 50,000 (12%) were called active. About 26% were inconclusive and are not listed. Calls follow the shape of the dose curve; as a rule, active = well fitted inhibition curve with a large enough effect; inconclusive = small, poorly fitted or top-dose-only effect; inactive = flat fitted curve, though single readings scatter. The list comes from a sample in which actives are over-represented; it also holds close analogues and randomly drawn compounds.
Please reply with one of these outcomes: active, inactive

Check out these entries, answers already filled in.
{"columns": ["molecule", "cat"],
 "data": [
  ["C=CCN(CC=C)C(=O)COC(=O)c1n[nH]c2ccccc12", "inactive"],
  ["COC(=O)C1(C)NC(c2ccc(C)cc2)C2C(=O)N(c3ccc(F)cc3)C(=O)C21 (stereo unspecified)", "inactive"],
  ["CC1CCC(CN2CCN=C2N(C)C)CC1 (stereo unspecified)", "active"],
  ["CCN([C@H](CO)C(C)C)S(=O)(=O)c1ccccc1Br", "inactive"],
  ["CC(C)CCN1CCN=C1N(C)C", "inactive"],
  ["COc1ccc(OCCCn2cccc2/C=C2/C(=N)N3OC(C)=CC3=NC2=O)cc1", "active"]
]}

Query: Field: outcome | Entry: COCCCn1c(SCC(=O)Nc2oc(C)c3c(C)n[nH]c(=O)c23)nc2sc3c(c2c1=O)CCC3
Result: inactive

Query: Let us now turn to c1csc(-c2nnc(COc3ccc4c(c3)OCO4)o2)c1
Result: inactive

* * *

# experimental.protocol: qHTS for Inhibitors of human tyrosyl-DNA phosphodiesterase 1 (TDP1): qHTS in cells in presence of CPT; note: nearly all actives have a fitted effect of over 55% in size
# cond: chicken DT40 Tdp1-/-;hTDP1 cells + 20 nM CPT, ATP luminescence, 48 h; series mostly up to 46.2 µM
Among all 420,000 compounds or so, about 50,000 (12%) were called active. Inconclusive results (about 26%) are left out. The call rests on the fitted dose curve; in most records, active means well fitted inhibition curve with a large enough effect; inconclusive means small, poorly fitted or top-dose-only effect; inactive means flat fitted curve, though single readings scatter. What follows is part of a selection rich in actives, with near analogues and random picks from the rest.
Please reply with one of these outcomes: yes (1) (active), no (0) (inactive)

Check out these entries, answers already filled in.
{"columns": ["compound", "cat"],
 "data": [
  ["COc1ccccc1CNC(=O)CS(=O)(=O)c1cccc2nsnc12", "no (0)"],
  ["CC(=O)N1N=C(c2ccccc2)OC1c1cccnc1 (configuration not stated)", "no (0)"]
]}

Query: Field: outcome | Entry: O=C(c1cccc(F)c1)N1CCC2(CCCN(Cc3ccncc3)C2)CC1
Result: no (0)

Query: Let us now turn to COc1ccccc1/C=C1\SC(=O)N(CCC(=O)N(C)C2CCS(=O)(=O)C2)C1=O (configuration not stated)
Result: no (0)

Query: Let us now turn to O=C(c1ccc(Cn2cc([N+](=O)[O-])cn2)o1)N1CCCC1
Result: no (0)

* * *

# experimental.protocol: qHTS for Inhibitors of human tyrosyl-DNA phosphodiesterase 1 (TDP1): qHTS in cells in presence of CPT; note: nearly all actives have a fitted effect of over 55% in size; note: potency is the fitted concentration of half-maximal effect
# cond: chicken DT40 Tdp1-/-;hTDP1 cells + 20 nM CPT, ATP luminescence, 48 h; series mostly up to 46.2 µM
Hit rate of the full screen: of about 420,000 compounds, about 50,000 (12%) were called active. About 26% were inconclusive and are not listed. Shown is part of a subset that was picked to be rich in actives. Where a SMILES comes first, the peptide text is derived from it. Bridges are numbered along the chain shown (N, C = ends). [ ]: non-standard residue; d: D form. The star is where a group is joined. X4 = CC[C@H](C)CCCCC(=O)*; Dab = NCC[C@H](N)C(=O)O
measured.quantity: Potency

{"columns": ["compound", "value.reported"],
 "data": [
  ["C=Cc1ccc(Cn2c(C(=O)OC)cc3sc(C)cc32)cc1", "inactive"],
  ["CCC(=O)N1CCC(C(N)=O)(N2CCCCC2)CC1", "inactive"],
  ["CCC1(CC)NC(=O)N(Cc2nc3ccccc3s2)C1=O", "inactive"],
  ["CCOCCCn1c(SCC(=O)Nc2cc(OC)ccc2OC)nc2ccccc2c1=O", "13 µM (active)"],
  ["COc1ccc(Cl)cc1NC(=O)CSc1nc2ccccc2c2nc(-c3ccccc3)nn12", "inactive"]
]}

Your task in this section: give Potency for each listed record.
1. CC1Cc2ccccc2N1CC(=O)Nc1ccc2c(c1)OC(F)(F)O2 (stereo not given)
2. CC[C@H](C)CCCCC(=O)N[C@@H](CCN)C(=O)N[C@H](C(=O)N[C@@H](CCN)C(=O)N[C@H]1CCNC(=O)[C@@H]([C@H](C)O)NC(=O)[C@H](CCN)NC(=O)[C@H](CCN)NC(=O)[C@H](CC(C)C)NC(=O)[C@@H](CC(C)C)NC(=O)[C@H](CCN)NC1=O)[C@@H](C)O (X4-[Dab]T[Dab][Dab][Dab][dL]L[Dab][Dab][dT]; lactam 4-C)
3. Cc1ccc(Sc2ccncc2S(N)(=O)=O)cc1
4. COc1ccc(CN(C)CCn2cc(C(=O)N3CCSCC3)nn2)cc1C
5. O=C1NC(Nc2nc3ccccc3s2)(C(F)(F)F)C(=O)N1C1CCCCC1 (stereo not given)

Result:
inactive
inactive
inactive
inactive
25.9 µM (active)

* * *

# experimental.protocol: qHTS for Inhibitors of human tyrosyl-DNA phosphodiesterase 1 (TDP1): qHTS in cells in presence of CPT; note: nearly all actives have a fitted effect of over 55% in size; note: potency is the fitted concentration of half-maximal effect
# cond: chicken DT40 Tdp1-/-;hTDP1 cells + 20 nM CPT, ATP luminescence, 48 h; series mostly up to 46.2 µM
Among all 420,000 compounds or so, about 50,000 (12%) were called active. Not shown: some 26% with an inconclusive outcome. This is one part of a sample in which actives are shown more often than they occur.
measured.quantity: Potency

Recorded Potency, per entry:
{"columns": ["smiles.input", "value.reported"],
 "data": [
  ["CC(C)(O)C(=O)NN(C(=O)c1ccccc1)c1cccc(Br)c1", "inactive"],
  ["Cn1cccc1C(=O)OCC(=O)NCCc1ccccc1", "inactive"],
  ["COc1ccc2[nH]cc(CCNc3ncnc4ccc(-c5ccc(C(=O)N(C)C)cc5)cc34)c2c1", "20.6 µM (active)"],
  ["COc1ccc2[nH]cc(CCNc3cc(-c4ccccc4CN(C)C)ncn3)c2c1", "inactive"],
  ["CCCCCNC(=O)C1c2ccccc2Oc2ccccc21", "inactive"]
]}

Your task in this section: give Potency for each listed record.
1. CCCCC(O)(CCCC)C(=O)NN(C(=O)CCl)c1ccccc1
2. Cc1ccc(N(NC(=O)C(C)(C)O)C(=O)c2ccccc2)cc1C
3. Cc1cc(=O)oc2c(C)c(OCC(=O)NCCc3ccc(S(N)(=O)=O)cc3)ccc12
4. CC(C)(C)n1cnnc1Sc1ccc([N+](=O)[O-])cn1

Result:
1. 14.6 µM (active)
2. inactive
3. inactive
4. inactive

Your task in this section: give Potency for each listed record.
1. COc1ccc2[nH]cc(CCN3C(=O)c4ccc(C(=O)O)cc4C3=O)c2c1
2. Nc1nc(N)c(N=O)c(N)n1

Result:
inactive
inactive
